# System: HCM-SANG-0266-C20 (colorectal cancer organoid)
# protocol_details: activity (1 - area under the dose-response curve within the screened range) (fraction); higher = more sensitive
# protocol_conditions: ECM percentage in culture prior to screening 5 %; treatment time: 72 h
The threshold is inclusive: activity of exactly 0.09 counts as satisfied; values below receive not satisfied.

* CC(C)(C)c1nc(-c2cccc(NS(=O)(=O)c3c(F)cccc3F)c2F)c(-c2ccnc(N)n2)s1 | satisfied
* Nc1nc2[nH]cc(CCc3ccc(C(=O)N[C@@H](CCC(=O)O)C(=O)O)cc3)c2c(=O)[nH]1 | not satisfied
* CC1(C)CCC(CN2CCN(c3ccc(C(=O)NS(=O)(=O)c4ccc(NCC5CCOCC5)c([N+](=O)[O-])c4)c(Oc4cnc5[nH]ccc5c4)c3)CC2)=C(c2ccc(Cl)cc2)C1 | not satisfied
* COc1cc2c(Nc3ccc(NC(=O)c4ccccc4)cc3)ncnc2cc1OCCCN1CCOCC1 | satisfied
* O=C(Nc1ccc2[nH]nc(-c3ccncc3)c2c1)[C@@H]1CCN(CC(=O)N2CCN(c3ccc(-c4ncccn4)cc3)CC2)C1 | satisfied

--- query ---
# bool: activity of Cc1cc(-c2ncc(CC(=O)Nc3ccc(-c4cnccn4)cn3)cc2C)ccn1 >= 0.09
not satisfied

----------
# Tested on: HCM-SANG-0266-C20
# protocol_details: activity (1 - area under the dose-response curve within the screened range) (fraction); higher = more sensitive
# protocol_conditions: ECM percentage in culture prior to screening 5 %; treatment time: 72 h
readout_name: activity
Give the figure by itself; no unit, no explanation.

Recorded activity, per entry:
* CC[C@@]1(O)C(=O)OCc2c1cc1n(c2=O)Cc2cc3ccccc3nc2-1 | 0.169
* CN1CCN(CCOc2cc(OC3CCOCC3)c3c(Nc4c(Cl)ccc5c4OCO5)ncnc3c2)CC1 | 0.156

Report activity from HCM-SANG-0266-C20 testing of COCC1(CO)C(=O)C2CCN1CC2 (stereo not given)
0.0344

Report activity from HCM-SANG-0266-C20 testing of c1cn2cc(-c3ccc4cn[nH]c4c3)nc(Nc3ccc(N4CCOCC4)cc3)c2n1
0.0298

Report activity from HCM-SANG-0266-C20 testing of C=CCn1c(=O)c2cnc(Nc3ccc(N4CCN(C)CC4)cc3)nc2n1-c1cccc(C(C)(C)O)n1
0.407

Report activity from HCM-SANG-0266-C20 testing of C[C@@H]1COCCN1c1cc(C2([S@](C)(=N)=O)CC2)nc(-c2cc[nH]c3nccc2-3)n1
0.185

Report activity from HCM-SANG-0266-C20 testing of O=C(CCCCCCC(=O)Nc1ccccc1)NO
0.225

----------
A collection of molecules and their measured activity
# Tested on: HCM-SANG-0266-C20
# protocol_details: activity (1 - area under the dose-response curve within the screened range) (fraction); higher = more sensitive
# protocol_conditions: ECM percentage in culture prior to screening 5 %; treatment time: 72 h
Give the figure by itself; no unit, no explanation.

Recorded activity, per entry:
• NC(=O)Nc1cc(-c2cccc(F)c2)sc1C(=O)N[C@H]1CCCNC1 = 0.287
• N.N.[Cl][Pt][Cl] [Cisplatin] = 0.0675

Assign activity to the following record: C[C@]1(O)C[C@@H](c2nc(-c3ccc4ccc(-c5ccccc5)nc4c3)c3c(N)nccn32)C1
0.0577
